Target: c-kit mutant D816V (Homo sapiens, UniProt P10721, D816V/DEL694-753)
Construct: residues 551-934, kinase insertion domain residues 694-753 deleted; 6x-histidine (N); made in house; host or cells: E. coli Arctic Express (DE3) RIL (Stratagene)
Sequence (P10721 with tags, fused parts or gaps DEL694-753/D816V): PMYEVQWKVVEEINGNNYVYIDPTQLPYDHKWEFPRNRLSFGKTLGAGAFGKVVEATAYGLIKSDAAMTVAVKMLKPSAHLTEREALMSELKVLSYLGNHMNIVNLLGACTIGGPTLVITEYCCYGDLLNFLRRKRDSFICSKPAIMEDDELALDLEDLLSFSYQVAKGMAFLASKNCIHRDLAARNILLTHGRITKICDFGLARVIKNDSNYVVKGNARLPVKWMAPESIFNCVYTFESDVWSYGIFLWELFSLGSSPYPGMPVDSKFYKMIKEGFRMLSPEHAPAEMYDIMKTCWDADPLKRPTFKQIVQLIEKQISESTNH
Assay: c-Kit mutant D816V biochemical assay, AlphaScreen
Conditions: c-kit D816V biochemical inhibitory activity; read-out: Biochemical activity (IC50 μM) Kit D816V
Procedure: Compounds to be tested were dissolved in DMSO to a concentration of 20 mM. These were diluted 30 μl into 120 μl of DMSO (4 mM) and 1 μl was added to an assay plate. These were then serially diluted 1:3 (50 μl to 100 μl DMSO) for a total of 8 points. […] The samples were incubated for 60 minutes at room temperature and the signal per well was read on EnVision reader. […]
Measured IC50, listed per entry.

Known results for compounds:
smilesNotation | measurementKind | valueObserved
N#Cc1cccc(-c2cc3c(N4CCN(C(=O)Nc5ccc(OC(F)(F)F)cc5)CC4)ncnc3[nH]2)c1 | IC50 | 10 to 200 µM
CS(=O)(=O)Nc1ccc(-c2ncnc3cc(C4=CCN(C(=O)N5CCOCC5)CC4)sc23)cc1 | IC50 | 0.0001 to 1 µM
Cc1cc2c(-c3ccc(NS(=O)(=O)c4cccc(F)c4)c(F)c3)ncnc2[nH]1 | IC50 | 1 to 10 µM
Cc1ncc(-c2cc3c(N4CCN(C(=O)NCc5ccc(F)cc5)CC4)ncnc3[nH]2)s1 | IC50 | 0.0001 to 1 µM
O=S(=O)(NC1CCN(c2ncnc3[nH]c(C4=CCCC4)cc23)CC1)c1ccc(OC(F)(F)F)cc1 | IC50 | 0.0001 to 1 µM
O=C(Nc1ccc(OC(F)(F)F)cc1)N1CCN(c2ncnc3[nH]c(-c4ccc(F)cc4)cc23)CC1 | IC50 | 1 to 10 µM

Any idea what IC50 was measured for Cc1ccc(S(=O)(=O)Nc2ccc(-c3ncnc4[nH]nc(C)c34)cc2)cc1 ?
0.0001 to 1 µM

Any idea what IC50 was measured for CC(C)(C)Oc1ccc(NC(=O)N2CCN(c3ncnc4[nH]c(-c5ccc(Cl)cc5)cc34)CC2)cc1 ?
10 to 200 µM

Any idea what IC50 was measured for COc1cc2ncnc(-c3ccc(NS(=O)(=O)C4CC4)cc3F)c2cc1OC ?
0.0001 to 1 µM

###

Target: c-kit mutant D816V (Homo sapiens, UniProt P10721, D816V/DEL694-753)
Construct: residues 551-934, kinase insertion domain residues 694-753 deleted; 6x-histidine (N); made in house; host or cells: E. coli Arctic Express (DE3) RIL (Stratagene)
Experiment: c-Kit mutant D816V biochemical assay, AlphaScreen
Settings: c-kit D816V biochemical inhibitory activity; read-out: Biochemical activity (IC50 μM) Kit D816V
Protocol: Compounds to be tested were dissolved in DMSO to a concentration of 20 mM. These were diluted 30 μl into 120 μl of DMSO (4 mM) and 1 μl was added to an assay plate. These were then serially diluted 1:3 (50 μl to 100 μl DMSO) for a total of 8 points. […] The samples were incubated for 60 minutes at room temperature and the signal per well was read on EnVision reader. […]
measurementKind: IC50

Known results for compounds:
compound | IC50
Cc1nn(C)cc1-c1cc2ncnc(C3=CCN(C(=O)NCc4ccc(F)cc4)CC3)c2s1 [P-0613] | 0.0001 to 1 µM
COc1cccc([C@H](C)NC(=O)N2CCN(c3ncnc4cc(-c5cn(C)nc5C)sc34)C[C@H]2C)c1 [P-0598] | 0.0001 to 1 µM
Cc1nn(C)cc1-c1cc2ncnc(C3=CCN(C(=O)Nc4ccc(Cl)cc4)CC3)c2s1 [P-0612] | 0.0001 to 1 µM

// below: IC50 requested for another compound
Any idea what IC50 was measured for NC1CCN(c2ncnc3[nH]ccc23)CC1 [P-0541] ?
1 to 10 µM

###

Target: c-kit mutant D816V (Homo sapiens, UniProt P10721, D816V/DEL694-753)
Construct: residues 551-934, kinase insertion domain residues 694-753 deleted; 6x-histidine (N); made in house; host or cells: E. coli Arctic Express (DE3) RIL (Stratagene)
Assay: c-Kit mutant D816V biochemical assay, AlphaScreen
Conditions: c-kit D816V biochemical inhibitory activity; read-out: Biochemical activity (IC50 μM) Kit D816V
measurementKind: IC50

Known results for molecules:
molecule | valueObserved
Cc1cc2c(N3CCN(C(=O)N[C@@H](C)c4cccc(Cl)c4)[C@H](C)C3)ncnc2[nH]1 [P-0647] | 0.0001 to 1 µM
CCCNS(=O)(=O)N1CCN(c2ncnc3[nH]c(-c4ccccc4)cc23)CC1 [P-0241] | 0.0001 to 1 µM
COc1ccc(S(=O)(=O)Nc2ccc(-c3ncnc4[nH]c(-c5ccc(F)cc5)cc34)cc2F)cc1 [P-0409] | 1 to 10 µM

// below: IC50 requested for another molecule
Hello, I am looking for reported IC50 with c-kit mutant D816V (Homo sapiens, UniProt P10721, D816V/DEL694-753) for C[C@@H]1CN(c2ncnc3[nH]c(-c4ccncc4)cc23)CCN1 [P-0074] . Could you help?
10 to 200 µM

###

Measured IC50, listed per entry.
Target: c-kit kinase (Homo sapiens, UniProt P10721)
Construct: The c-kit (or kinase domain thereof) is an active kinase in AlphaScreen; poly-Histidine tag (in-house protein only) (cleaved yes); host or cells: E. coli BL21(DE3)RIL, co-expressed with PTP1B
Sequence (P10721 26-976): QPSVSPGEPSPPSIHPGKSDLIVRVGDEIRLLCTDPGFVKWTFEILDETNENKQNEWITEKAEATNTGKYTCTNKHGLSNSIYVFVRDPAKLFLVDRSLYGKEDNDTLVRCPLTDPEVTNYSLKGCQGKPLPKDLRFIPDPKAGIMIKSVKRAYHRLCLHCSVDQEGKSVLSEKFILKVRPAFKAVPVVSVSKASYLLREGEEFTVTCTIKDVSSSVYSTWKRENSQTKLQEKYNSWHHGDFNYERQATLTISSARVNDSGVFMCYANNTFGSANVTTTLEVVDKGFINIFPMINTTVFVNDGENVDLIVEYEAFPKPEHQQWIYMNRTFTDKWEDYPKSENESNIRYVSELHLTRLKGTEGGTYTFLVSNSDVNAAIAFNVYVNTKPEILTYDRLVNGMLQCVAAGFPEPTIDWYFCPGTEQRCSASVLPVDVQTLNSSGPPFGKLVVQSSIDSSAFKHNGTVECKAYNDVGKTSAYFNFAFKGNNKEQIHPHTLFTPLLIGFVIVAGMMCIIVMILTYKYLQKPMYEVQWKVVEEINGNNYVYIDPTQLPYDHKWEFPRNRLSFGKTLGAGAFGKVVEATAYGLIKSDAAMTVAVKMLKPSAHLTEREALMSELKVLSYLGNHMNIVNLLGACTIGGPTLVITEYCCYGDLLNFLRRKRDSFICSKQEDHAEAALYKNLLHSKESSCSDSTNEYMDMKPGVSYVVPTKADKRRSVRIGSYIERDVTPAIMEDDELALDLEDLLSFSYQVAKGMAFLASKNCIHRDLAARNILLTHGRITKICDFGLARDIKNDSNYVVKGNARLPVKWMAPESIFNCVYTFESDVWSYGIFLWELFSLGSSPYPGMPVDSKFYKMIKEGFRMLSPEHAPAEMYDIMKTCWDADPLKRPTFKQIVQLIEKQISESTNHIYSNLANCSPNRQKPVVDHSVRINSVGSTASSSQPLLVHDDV
Test: c-Kit biochemical assay, AlphaScreen, 10 μM ATP
Conditions: c-kit biochemical inhibitory activity; read-out: Biochemical activity (IC50 μM) Kit

smilesNotation | IC50
Cc1cc2c(-c3ccc(NS(=O)(=O)c4cccc(F)c4)c(F)c3)ncnc2[nH]1 | 1 to 10 µM
CC(=O)Nc1ccc(-c2cc3c(N4CCN(C(=O)Nc5ccc(OC(F)(F)F)cc5)CC4)ncnc3[nH]2)cn1 | 1 to 10 µM
COc1cccc([C@H](C)NC(=O)N2CCN(c3ncnc4[nH]c(-c5ccc(C#N)cc5)cc34)C[C@H]2C)c1 | 1 to 10 µM

Hello, I am looking for reported IC50 with c-kit kinase (Homo sapiens, UniProt P10721) for COc1cc2ncnc(-c3ccc(S(=O)(=O)Nc4ccc(Cl)cc4)cc3F)c2cc1OCCCN1CCOCC1 . Could you help?
1 to 10 µM

Hello, I am looking for reported IC50 with c-kit kinase (Homo sapiens, UniProt P10721) for CNC(=O)c1cccc(-c2cc3c(N4CCN(C(=O)NCc5ccc(F)cc5)CC4)ncnc3[nH]2)c1 . Could you help?
1 to 10 µM

Hello, I am looking for reported IC50 with c-kit kinase (Homo sapiens, UniProt P10721) for CS(=O)(=O)N1CC=C(c2cc3ncnc(N4CCN(C(=O)NCc5ccc(F)cc5)CC4)c3s2)CC1 . Could you help?
1 to 10 µM

Hello, I am looking for reported IC50 with c-kit kinase (Homo sapiens, UniProt P10721) for Cc1nn(C)cc1-c1cc2ncnc(C3=CCN(C(=O)NCc4ccc(F)cc4)CC3)c2s1 . Could you help?
1 to 10 µM

Hello, I am looking for reported IC50 with c-kit kinase (Homo sapiens, UniProt P10721) for COc1cc2c(-c3ccc(NS(=O)(=O)c4ccc(Cl)cc4)cc3F)ncnc2cc1OCCCN1CCCCC1 . Could you help?
0.0001 to 1 µM

###

Molecular target: c-kit mutant D816V (Homo sapiens, UniProt P10721, D816V/DEL694-753)
Construct: residues 551-934, kinase insertion domain residues 694-753 deleted; 6x-histidine (N); made in house; host or cells: E. coli Arctic Express (DE3) RIL (Stratagene)
Experiment: c-Kit mutant D816V biochemical assay, AlphaScreen
Settings: c-kit D816V biochemical inhibitory activity; read-out: Biochemical activity (IC50 μM) Kit D816V
measurementKind: IC50

Known results for compounds:
smilesNotation | IC50
C[C@H](NC(=O)N1CCN(c2ncnc3[nH]c(-c4cnn(C)c4)cc23)C[C@H]1C)c1ccc(Cl)cc1 | 0.0001 to 1 µM
O=C(NCc1ccc(F)cc1)N1CCN(c2ncnc3[nH]cc(CC4CC4)c23)CC1 | 1 to 10 µM

Any idea what IC50 was measured for Cc1cc2c(-c3ccc(NS(=O)(=O)c4ccc(OC(C)C)cc4)cc3)ncnc2[nH]1 ?
10 to 200 µM

Any idea what IC50 was measured for CS(=O)(=O)Nc1ccc(-c2cc3c(N4CCN(C(=O)Nc5ccc(OC(F)(F)F)cc5)CC4)ncnc3[nH]2)cc1 ?
0.0001 to 1 µM

Any idea what IC50 was measured for Cc1cc2c(-c3ccc(NS(=O)(=O)c4ccc(C(C)C)cc4)cc3)ncnc2[nH]1 ?
1 to 10 µM

Any idea what IC50 was measured for CCCS(=O)(=O)Nc1ccc(-c2ncnc3cc(OC)c(OC)cc23)cc1F ?
1 to 10 µM

Any idea what IC50 was measured for O=S(=O)(Nc1ccc(-c2ncnc3[nH]c(-c4ccc(F)cc4)cc23)cc1)N1CCCC1 ?
1 to 10 µM

Any idea what IC50 was measured for Cc1nn(C)cc1-c1cc2ncnc(C3CCNCC3)c2s1 ?
10 to 200 µM
